All values here come from patent US20060058346A1.

Test system: right auricle muscle
Assay: Heart rates (beats) of right auricle muscle excised from rats
Design: species or system rat
Settings: 1 × 10^−5 M; vehicle control:100%
Experimental: Immediately after Sprague-Dawley rats (female or male) were anaesthetized with pentobarbital sodium (50 mg/kg, i.m.), the thorax was opened to excise the heart. The heart was submerged in Krebs solution, and left auricle muscle and right auricle muscle were then isolated. […] In the case of right auricle muscle, which contracts spontaneously, the number of continuous beats was recorded. […]
endpoint.name: Heart Rates of Auricle Muscles (%)
Answer format: numeric, % implied, no suffix.

// lookup Heart Rates of Auricle Muscles | system=right auricle muscle | key= Oc1ccc(CC2NCCc3cc(O)c(O)cc32)cc1 (racemic) [Racemic mixture of formula 3 and formula 4, higenamine, reference compound]
140

Identify the measured Heart Rates of Auricle Muscles of Oc1cc2c(cc1O)C(Cc1ccc3ccccc3c1)NCC2 (racemic) [Racemic mixture of formula 7 and formula 8, reference compound] for right auricle muscle.
140

Record Oc1ccc(C[C@@H]2NCCc3cc(O)c(O)cc32)cc1 [Formula 3] : what is its Heart Rates of Auricle Muscles with right auricle muscle?
180

Checklist item: Heart Rates of Auricle Muscles tested on right auricle muscle, entry Oc1cc2c(cc1O)C(Cc1cccc3ccccc13)NCC2 (racemic) [Racemic mixture of formula 5 and formula 6, reference compound] , value?
130
